system: PC-3 [JPC-3]; assay: relative viability (nuclei count vs DMSO), 5 days (fraction); higher = more cells survive; settings: first compound 20 µM
Reported relative viability values are given for each entry in this list.

COMPOUND	relative viability
COCC1(CO)C(=O)C2CCN1CC2 (stereo not drawn) [PRIMA-1MET] + N=C(N)NC(=N)NCCc1ccccc1 [Phenformin] (partner 250 µM)	0.466
COCC1(CO)C(=O)C2CCN1CC2 (stereo not drawn) [PRIMA-1MET] + CS(=O)(=O)CCNCc1ccc(-c2ccc3ncnc(Nc4ccc(OCc5cccc(F)c5)c(Cl)c4)c3c2)o1 [Lapatinib] (partner 2 µM)	0.478

Moving on to the next compound.
Ask | Find the measured relative viability: item COCC1(CO)C(=O)C2CCN1CC2 (stereo not drawn) [PRIMA-1MET] + CC1(C)CCC(c2ccc(Cl)cc2)=C(CN2CCN(c3ccc(C(=O)NS(=O)(=O)c4ccc(N[C@H](CCN5CCOCC5)CSc5ccccc5)c(S(=O)(=O)C(F)(F)F)c4)cc3)CC2)C1 [Navitoclax] (partner 0.5 µM) , target or system PC-3 [JPC-3].
Reply | 0.708

* * *

Recorded relative viability for the following molecules
test system: NCI-H2126; assay: relative viability (nuclei count vs DMSO), 5 days (fraction); higher = more cells survive; conditions: first compound 2.53 µM

Answered cases to consult:
MOLECULE	TARGET_SYSTEM	relative viability
O=c1cc(-c2cccc3c2Sc2ccccc2S3)oc(N2CCOCC2)c1 + CC(=O)c1c(C)c2cnc(Nc3ccc(N4CCNCC4)cn3)nc2n(C2CCCC2)c1=O [Palbociclib] (partner 0.5 µM)	NCI-H2126	0.358
O=c1cc(-c2cccc3c2Sc2ccccc2S3)oc(N2CCOCC2)c1 + O=C(c1cc(Cc2n[nH]c(=O)c3ccccc23)ccc1F)N1CCN(C(=O)C2CC2)CC1 [Olaparib] (partner 8 µM)	NCI-H2126	0.9
O=c1cc(-c2cccc3c2Sc2ccccc2S3)oc(N2CCOCC2)c1 + Nc1nc2[nH]cc(CCc3ccc(C(=O)N[C@@H](CCC(=O)O)C(=O)O)cc3)c2c(=O)[nH]1 [Pemetrexed] (partner 0.2 µM)	NCI-H2126	0.695
COc1nc(C)cnc1NS(=O)(=O)c1cccnc1-c1ccc(-c2nnco2)cc1 [Zibotentan] + COc1cccc2cc(-c3nc([C@H]4CC[C@H](C(=O)O)CC4)n4ncnc(N)c34)[nH]c12 [OSI-027] (partner 0.5 µM)	NCI-H2126	0.684
O=c1cc(-c2cccc3c2Sc2ccccc2S3)oc(N2CCOCC2)c1 + COc1cccc2cc(-c3nc([C@H]4CC[C@H](C(=O)O)CC4)n4ncnc(N)c34)[nH]c12 [OSI-027] (partner 0.5 µM)	NCI-H2126	0.535
COc1nc(C)cnc1NS(=O)(=O)c1cccnc1-c1ccc(-c2nnco2)cc1 [Zibotentan] + O=C(CCCCCCC(=O)Nc1ccccc1)NO [Vorinostat] (partner 1 µM)	NCI-H2126	0.831

Ask | // query relative viability value for entry O=c1cc(-c2cccc3c2Sc2ccccc2S3)oc(N2CCOCC2)c1 + CS(=O)(=O)CCNCc1ccc(-c2ccc3ncnc(Nc4ccc(OCc5cccc(F)c5)c(Cl)c4)c3c2)o1 [Lapatinib] (partner 2 µM)
Reply | 0.679

Ask | // query: O=c1cc(-c2cccc3c2Sc2ccccc2S3)oc(N2CCOCC2)c1 + Cc1nc(Nc2ncc(C(=O)Nc3c(C)cccc3Cl)s2)cc(N2CCN(CCO)CC2)n1 [Dasatinib] (partner 0.075 µM)
Reply | 0.534

Ask | Also check COc1nc(C)cnc1NS(=O)(=O)c1cccnc1-c1ccc(-c2nnco2)cc1 [Zibotentan] + Nc1ncn([C@H]2C[C@H](O)[C@@H](CO)O2)c(=O)n1 [Decitabine] (partner 2 µM)
Reply | 0.551

Ask | Also COc1nc(C)cnc1NS(=O)(=O)c1cccnc1-c1ccc(-c2nnco2)cc1 [Zibotentan] + Cc1nc(NC(=O)N2CCC[C@H]2C(N)=O)sc1-c1ccnc(C(C)(C)C(F)(F)F)c1 [Alpelisib] (partner 2 µM) ?
Reply | 0.762

Ask | # repeat for O=c1cc(-c2cccc3c2Sc2ccccc2S3)oc(N2CCOCC2)c1 + CC(=O)Nc1cccc(-n2c(=O)n(C3CC3)c(=O)c3c(Nc4ccc(I)cc4F)n(C)c(=O)c(C)c32)c1 [Trametinib] (partner 0.02 µM)
Reply | 0.508

* * *

tested on: LC-2-ad; test: relative viability (nuclei count vs DMSO), 5 days (fraction); higher = more cells survive; conditions: first compound 6.325 µM
Just a reminder that ties go to criterion not met: only relative viability strictly below 0.9 counts as criterion met.

COMPOUND	CATEGORY
COCC1(CO)C(=O)C2CCN1CC2 (configuration not stated) [PRIMA-1MET] + Nc1nc2[nH]cc(CCc3ccc(C(=O)N[C@@H](CCC(=O)O)C(=O)O)cc3)c2c(=O)[nH]1 [Pemetrexed] (partner 0.2 µM)	criterion met
COCC1(CO)C(=O)C2CCN1CC2 (configuration not stated) [PRIMA-1MET] + CS(=O)(=O)N1CCN(Cc2cc3nc(-c4cccc5[nH]ncc45)nc(N4CCOCC4)c3s2)CC1 [Pictilisib] (partner 1 µM)	criterion met
COCC1(CO)C(=O)C2CCN1CC2 (configuration not stated) [PRIMA-1MET] + CS(=O)(=O)CCNCc1ccc(-c2ccc3ncnc(Nc4ccc(OCc5cccc(F)c5)c(Cl)c4)c3c2)o1 [Lapatinib] (partner 2 µM)	criterion not met
COCC1(CO)C(=O)C2CCN1CC2 (configuration not stated) [PRIMA-1MET] + NC(=O)Nc1cc(-c2cccc(F)c2)sc1C(=O)N[C@H]1CCCNC1 [AZD7762] (partner 0.2 µM)	criterion not met

# input for lookup
Ask | Is relative viability of COCC1(CO)C(=O)C2CCN1CC2 (configuration not stated) [PRIMA-1MET] + Nc1ncn([C@H]2C[C@H](O)[C@@H](CO)O2)c(=O)n1 [Decitabine] (partner 2 µM) strictly below 0.9?
Reply | criterion met

* * *

Documented relative viability across a set of compounds
system: LXF-289; test: relative viability (nuclei count vs DMSO), 5 days (fraction); higher = more cells survive; conditions: first compound 0.6325 µM
Form field (numeric): enter value without unit.

COMPOUND	relative viability
COCC1(CO)C(=O)C2CCN1CC2 (stereo not given) [PRIMA-1MET] + Cc1cc(Nc2cc(N3CCN(C)CC3)nc(Sc3ccc(NC(=O)C4CC4)cc3)n2)n[nH]1 [Tozasertib] (partner 0.1 µM)	0.173

Ask | // returns reported relative viability for input COCC1(CO)C(=O)C2CCN1CC2 (stereo not given) [PRIMA-1MET] + CCNC(=O)c1noc(-c2cc(C(C)C)c(O)cc2O)c1-c1ccc(CN2CCOCC2)cc1 [Luminespib] (partner 0.01 µM)
Reply | 0.673

Ask | What do we get for COCC1(CO)C(=O)C2CCN1CC2 (stereo not given) [PRIMA-1MET] + CC(=O)c1c(C)c2cnc(Nc3ccc(N4CCNCC4)cn3)nc2n(C2CCCC2)c1=O [Palbociclib] (partner 0.5 µM) ?
Reply | 0.662

Ask | How about this compound: COCC1(CO)C(=O)C2CCN1CC2 (stereo not given) [PRIMA-1MET] + C[C@@H](Oc1cc(-c2cnn(C3CCNCC3)c2)cnc1N)c1c(Cl)ccc(F)c1Cl [Crizotinib] (partner 1 µM)
Reply | 0.869

Ask | And then COCC1(CO)C(=O)C2CCN1CC2 (stereo not given) [PRIMA-1MET] + COc1cccc2cc(-c3nc([C@H]4CC[C@H](C(=O)O)CC4)n4ncnc(N)c34)[nH]c12 [OSI-027] (partner 0.5 µM) , what is it?
Reply | 0.803

* * *

test system: NCI-H647; assay: relative viability (nuclei count vs DMSO), 5 days (fraction); higher = more cells survive; conditions: first compound 0.03162 µM
MEASURED_ATTRIBUTE: relative viability
// print number alone

The cases that follow already have their relative viability on record.
COMPOUND	relative viability
CCN(CC)CCCCNc1ncc2cc(-c3cc(OC)cc(OC)c3)c(NC(=O)NC(C)(C)C)nc2n1 + COc1cc2c(Oc3ccc(NC(=O)C4(C(=O)Nc5ccc(F)cc5)CC4)cc3F)ccnc2cc1OCCCN1CCOCC1 [Foretinib] (partner 0.25 µM)	1.39
O=c1cc(N2CCOCC2)oc2c(-c3cccc4c3sc3ccccc34)cccc12 + Cc1nc(NC(=O)N2CCC[C@H]2C(N)=O)sc1-c1ccnc(C(C)(C)C(F)(F)F)c1 [Alpelisib] (partner 2 µM)	1.2
O=c1cc(N2CCOCC2)oc2c(-c3cccc4c3sc3ccccc34)cccc12 + O=C(CCCCCCC(=O)Nc1ccccc1)NO [Vorinostat] (partner 1 µM)	0.708
CCN(CC)CCCCNc1ncc2cc(-c3cc(OC)cc(OC)c3)c(NC(=O)NC(C)(C)C)nc2n1 + CCNC(=O)c1noc(-c2cc(C(C)C)c(O)cc2O)c1-c1ccc(CN2CCOCC2)cc1 [Luminespib] (partner 0.01 µM)	0.205
CCN(CC)CCCCNc1ncc2cc(-c3cc(OC)cc(OC)c3)c(NC(=O)NC(C)(C)C)nc2n1 + CC(C)C[C@H](NC(=O)[C@H](Cc1ccccc1)NC(=O)c1cnccn1)B(O)O [Bortezomib] (partner 0.002 µM)	0.996

Ask | Look at this compound and give its reported relative viability. CCN(CC)CCCCNc1ncc2cc(-c3cc(OC)cc(OC)c3)c(NC(=O)NC(C)(C)C)nc2n1 + CS(=O)(=O)N1CCN(Cc2cc3nc(-c4cccc5[nH]ncc45)nc(N4CCOCC4)c3s2)CC1 [Pictilisib] (partner 1 µM)
Reply | 0.471

Ask | What would you report for O=c1cc(N2CCOCC2)oc2c(-c3cccc4c3sc3ccccc34)cccc12 + C[C@@H](Oc1cc(-c2cnn(C3CCNCC3)c2)cnc1N)c1c(Cl)ccc(F)c1Cl [Crizotinib] (partner 1 µM) ?
Reply | 1.23

Ask | Okay, and CCN(CC)CCCCNc1ncc2cc(-c3cc(OC)cc(OC)c3)c(NC(=O)NC(C)(C)C)nc2n1 + N=C(N)NC(=N)NCCc1ccccc1 [Phenformin] (partner 250 µM) ?
Reply | 0.59

Ask | O=c1cc(N2CCOCC2)oc2c(-c3cccc4c3sc3ccccc34)cccc12 + C[C@]1(O)C[C@@H](c2nc(-c3ccc4ccc(-c5ccccc5)nc4c3)c3c(N)nccn32)C1 [Linsitinib] (partner 1 µM) ?
Reply | 1.24

Ask | Record: CCN(CC)CCCCNc1ncc2cc(-c3cc(OC)cc(OC)c3)c(NC(=O)NC(C)(C)C)nc2n1 + O=C(CCCCCCC(=O)Nc1ccccc1)NO [Vorinostat] (partner 1 µM)
Reply | 0.645

Ask | Same lookup for O=c1cc(N2CCOCC2)oc2c(-c3cccc4c3sc3ccccc34)cccc12 + CC(C)C[C@H](NC(=O)[C@H](Cc1ccccc1)NC(=O)c1cnccn1)B(O)O [Bortezomib] (partner 0.002 µM) , please.
Reply | 1.1
